Molecular target: 15-lipoxygenase (Glycine max, UniProt P08170)
Construct: 15-lipoxygenase obtained from soybean; from tissue; host or cells: soybean
Sequence (P08170 1-839): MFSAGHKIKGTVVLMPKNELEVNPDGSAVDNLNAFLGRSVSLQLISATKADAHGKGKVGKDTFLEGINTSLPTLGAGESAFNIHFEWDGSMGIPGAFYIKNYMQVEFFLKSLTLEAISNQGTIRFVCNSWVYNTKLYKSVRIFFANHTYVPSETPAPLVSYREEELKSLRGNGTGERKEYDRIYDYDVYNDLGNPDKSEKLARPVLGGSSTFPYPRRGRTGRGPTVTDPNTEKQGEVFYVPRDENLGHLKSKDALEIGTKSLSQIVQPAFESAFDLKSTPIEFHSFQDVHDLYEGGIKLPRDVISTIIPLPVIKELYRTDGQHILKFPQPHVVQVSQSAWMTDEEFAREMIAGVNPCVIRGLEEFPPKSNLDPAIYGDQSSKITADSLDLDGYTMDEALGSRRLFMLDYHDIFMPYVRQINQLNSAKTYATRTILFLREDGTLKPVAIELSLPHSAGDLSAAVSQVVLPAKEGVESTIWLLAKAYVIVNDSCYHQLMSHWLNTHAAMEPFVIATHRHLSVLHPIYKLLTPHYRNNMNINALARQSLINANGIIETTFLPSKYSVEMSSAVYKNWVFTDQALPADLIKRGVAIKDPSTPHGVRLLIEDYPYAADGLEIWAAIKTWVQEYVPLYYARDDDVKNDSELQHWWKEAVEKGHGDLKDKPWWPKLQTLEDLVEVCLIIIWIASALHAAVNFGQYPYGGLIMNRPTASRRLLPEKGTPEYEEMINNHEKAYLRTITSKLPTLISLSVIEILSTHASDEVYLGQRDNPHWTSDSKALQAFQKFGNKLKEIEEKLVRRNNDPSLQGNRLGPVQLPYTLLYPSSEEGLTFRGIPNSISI
Experiment: 15-lipoxygenase inhibition (15-lipoxygenase obtained from soybean)
Format: biochemical
Settings: read-out: % Inhibition at Indicated Concentration, 15-lipoxygenase, 100 uM
observed property: inhibition at 100 µM (%)

Some compounds with known inhibition at 100 µM results, for comparison:
compound	numeric result
O=C(NO)c1ccc(-c2ccccc2)cc1 [Example 7, 4-biphenyl hydroxamic acid]	30
CN(O)C(=O)C=Cc1ccc(-c2ccccc2)cc1	74
O=C(NO)c1ccc2ccc3ccccc3c2c1 [Example 13, 3-Phenanthryl hydroxamic acid]	39

I. CN(O)C(=O)C=Cc1cccc(-c2ccccc2)c1
II. O=C(NO)c1cccc(-c2ccccc2)c1 [Example 8, 3-biphenyl hydroxamic acid]
Ask: Compare reported inhibition at 100 µM values for I and II . Which is lower? Mark your answer with the label of the selected entry.
Result: II
